// data source = patent US10494415B2

measured target: IGF2 (Homo sapiens, UniProt P01344)
Sequence (P01344 25-91): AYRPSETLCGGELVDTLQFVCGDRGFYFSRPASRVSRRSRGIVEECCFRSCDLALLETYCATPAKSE
test details: SPR (Biacore T200) of recombinant IGF2R domain 11 mutants on immobilised biotinylated IGF2
Assay type: binding
Set-up: purchased GroPep
assay context: Table 2

>  <molecule>
AB3: IGF2R domain 11 with AB loop mutations E1544K, K1545S, L1547V (YSKSGV) (protein) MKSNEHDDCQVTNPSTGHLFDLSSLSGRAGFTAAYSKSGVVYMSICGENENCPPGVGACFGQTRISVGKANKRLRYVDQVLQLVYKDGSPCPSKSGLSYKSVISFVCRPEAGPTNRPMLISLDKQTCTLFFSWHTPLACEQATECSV

>  <unit label>
s⁻¹

>  <Kinetics koff>
0.044

$$$$
>  <molecule>
AB3 P1597H: domain 11 AB3 + FG loop P1597H (protein) MKSNEHDDCQVTNPSTGHLFDLSSLSGRAGFTAAYSKSGVVYMSICGENENCPPGVGACFGQTRISVGKANKRLRYVDQVLQLVYKDGSHCPSKSGLSYKSVISFVCRPEAGPTNRPMLISLDKQTCTLFFSWHTPLACEQATECSV

>  <unit label>
s⁻¹

>  <Kinetics koff>
0.013

$$$$
>  <molecule>
WT + 312G (HI-VKLM): wild-type domain 11 with HI loop VKLM (clone 312G) (protein) MKSNEHDDCQVTNPSTGHLFDLSSLSGRAGFTAAYSEKGLVYMSICGENENCPPGVGACFGQTRISVGKANKRLRYVDQVLQLVYKDGSPCPSKSGLSYKSVISFVCRPEAGPTNRPMLISLVKLMCTLFFSWHTPLACEQATECSV

>  <unit label>
s⁻¹

>  <Kinetics koff>
0.15

$$$$
>  <molecule>
WT + 27G (HI-NMAL): wild-type domain 11 with HI loop NMAL (clone 27G) (protein) MKSNEHDDCQVTNPSTGHLFDLSSLSGRAGFTAAYSEKGLVYMSICGENENCPPGVGACFGQTRISVGKANKRLRYVDQVLQLVYKDGSPCPSKSGLSYKSVISFVCRPEAGPTNRPMLISLNMALCTLFFSWHTPLACEQATECSV

>  <unit label>
s⁻¹

>  <Kinetics koff>
0.25

$$$$
